Tested on: corn
ASSAY_PROTOCOL: Greenhouse subsurface drip irrigation trial, deficit irrigated, Examples 4-8
Format: in vivo
CONDITIONS_USED: SDI chemigated at V3/V4, 50% irrigated deficit; Azoxystrobin 261, PPZ 126, TXP 250, PBZ 12.5, TMX 70 gai/ha
Each entry below carries its recorded % Yield Increase by Product over Untr./50% Irr..
ASSAY_ENDPOINT: % Yield Increase by Product over Untr./50% Irr.

• CC(C)(C)[C@@H](O)[C@@H](Cc1ccc(Cl)cc1)n1cncn1 (racemic) = +16.6% Incr. over Untr./50% Irr.
• CCCC1COC(Cn2cncn2)(c2ccc(Cl)cc2Cl)O1 (centres unmarked) = +3.3% Incr. over Untr./50% Irr.
• CO/C=C(/C(=O)OC)c1ccccc1Oc1cc(Oc2ccccc2C#N)ncn1 = +12.5% Incr. over Untr./50% Irr.
• CCOC(=O)C1CC(=O)C(=C(O)C2CC2)C(=O)C1 (centres unmarked) = +15.6% Incr. over Untr./50% Irr.
• CN1COCN(Cc2cnc(Cl)s2)/C1=N\[N+](=O)[O-] = +4% Incr. over Untr./50% Irr.
